Cited source: paper PMC3024981

- Substrate: O=CC(O)COP(=O)(O)O
- Method: purified protein
- Format: biochemical, Bacillus subtilis
- Assay Conditions: His-tagged proteins, R5P and glutamine as co-substrates, 50 mM Tris-Cl pH 7.5, 37°C
Measured Property: Km (µM)

protein="PLP synthase (Pdx1-His6 + Pdx2) (Bacillus subtilis subsp. subtilis str. 168; H115A) (protein, complex of C-terminally hexahistidine-tagged Pdx1 with Pdx2-His6; with Pyridoxal 5'-phosphate synthase subunit PdxT) AQTGTERVKRGMAEMQKGGVIMDVINAEQAKIAEEAGAVAVMALERVPADIRAAGGVARMADPTIVEEVMNAVSIPVMAKARIGHIVEARVLEAMGVDYIDESEVLTPADEEFALNKNEYTVPFVCGCRDLGEATRRIAEGASMLRTKGEPGTGNIVEAVRHMRKVNAQVRKVVAMSEDELMTEAKNLGAPYELLLQIKKDGKLPVVNFAAGGVATPADAALMMQLGADGVFVGSGIFKSDNPAKFAKAIVEATTHFTDYKLIAELSKELGTAMKGIEISNLLPEQRMQERGW" readout_number=229
